# Test system: Transmembrane protease serine 2 (Homo sapiens, UniProt O15393)
# Sequence (O15393 1-255 limits assumed): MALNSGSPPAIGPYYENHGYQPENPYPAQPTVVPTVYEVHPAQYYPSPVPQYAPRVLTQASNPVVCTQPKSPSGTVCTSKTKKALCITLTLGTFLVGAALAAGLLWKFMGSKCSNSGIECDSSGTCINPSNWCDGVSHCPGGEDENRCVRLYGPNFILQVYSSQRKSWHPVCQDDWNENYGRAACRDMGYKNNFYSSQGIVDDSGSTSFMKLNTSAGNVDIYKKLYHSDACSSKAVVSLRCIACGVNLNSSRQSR
# Sequence (O15393 256-492 limits assumed): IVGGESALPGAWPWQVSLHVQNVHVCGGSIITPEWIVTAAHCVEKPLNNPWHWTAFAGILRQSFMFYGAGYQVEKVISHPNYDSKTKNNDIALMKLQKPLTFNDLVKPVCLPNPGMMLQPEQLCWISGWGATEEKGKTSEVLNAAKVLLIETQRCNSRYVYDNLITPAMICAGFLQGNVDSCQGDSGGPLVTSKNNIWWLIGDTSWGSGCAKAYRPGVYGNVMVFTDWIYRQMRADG
# Assay info: Inhibition of recombinant TMPRSS2 (unknown origin) extracted from baculovirus infected in Sf9 cells assessed as residual activity using Boc-QAR-AMC as substrate at 1 nM measured after 1 hr by fluorescence based analysis relative to control
hey, just use met if measured Activity is less than 10%, otherwise not met

## Task Take the compound "N=C(N)NCCCCC(=O)N[C@@H](CCC(N)=O)C(=O)N[C@@H](Cc1ccccc1)C(=O)N[C@@H](CCCNC(=N)N)C(=O)c1nc2ccccc2s1" and say whether its Activity is less than 10%.
## Result not met

## Task Take the compound "N=C(N)NCCCCC(=O)N[C@H](CCC(N)=O)C(=O)N[C@@H](Cc1ccccc1)C(=O)N[C@@H](CCCNC(=N)N)C(=O)c1nc2ccccc2s1" and say whether its Activity is less than 10%.
## Result not met

## Task Take the compound "CC(=O)N[C@@H](CCC(N)=O)C(=O)N[C@@H](CC1CCCCC1)C(=O)N[C@@H](CCCNC(=N)N)C(=O)c1nc2ccccc2s1" and say whether its Activity is less than 10%.
## Result not met

## Task Take the compound "C[C@H](NC(=O)[C@H](CCC(N)=O)NC(=O)CCCCNC(=N)N)C(=O)N[C@@H](CCCNC(=N)N)C(=O)c1nc2ccccc2s1" and say whether its Activity is less than 10%.
## Result not met

## Task Take the compound "CS(=O)(=O)N[C@@H](CCC(N)=O)C(=O)N[C@@H](Cc1ccccc1)C(=O)N[C@@H](CCCNC(=N)N)C(=O)c1nc2ccccc2s1" and say whether its Activity is less than 10%.
## Result not met

## Task Take the compound "N=C(N)NCCCCC(=O)N[C@@H](CCC(N)=O)C(=O)N[C@@H](CO)C(=O)N[C@@H](CCCNC(=N)N)C(=O)c1nc2ccccc2s1" and say whether its Activity is less than 10%.
## Result not met

## Task Take the compound "N=C(N)NCCC[C@H](NC(=O)[C@H](Cc1ccccc1)NC(=O)[C@H](CCC(N)=O)NC(=O)OCc1ccccc1)C(=O)c1nccs1" and say whether its Activity is less than 10%.
## Result met

## Task Take the compound "CN(C)C(=O)CC[C@H](NC(=O)CCCCNC(=N)N)C(=O)N[C@@H](Cc1ccccc1)C(=O)N[C@@H](CCCNC(=N)N)C(=O)c1nc2ccccc2s1" and say whether its Activity is less than 10%.
## Result not met

## Task Take the compound "C[C@H](NC(=O)CCCCNC(=N)N)C(=O)N[C@@H](Cc1ccccc1)C(=O)N[C@@H](CCCNC(=N)N)C(=O)c1nc2ccccc2s1" and say whether its Activity is less than 10%.
## Result met

## Task Take the compound "COCCC(=O)N[C@@H](CCC(N)=O)C(=O)N[C@@H](Cc1ccccc1)C(=O)N[C@@H](CCCNC(=N)N)C(=O)c1nc2ccccc2s1" and say whether its Activity is less than 10%.
## Result met

## Task Take the compound "CC(C)[C@H](NC(=O)[C@H](Cc1cscn1)NC(=O)CCc1ccccc1)C(=O)N[C@@H](CCCNC(=N)N)C(=O)c1nc2ccccc2s1" and say whether its Activity is less than 10%.
## Result not met

## Task Take the compound "N=C(N)NCCCCC(=O)N[C@@H](CC(N)=O)C(=O)N[C@@H](Cc1ccccc1)C(=O)N[C@@H](CCCNC(=N)N)C(=O)c1nc2ccccc2s1" and say whether its Activity is less than 10%.
## Result not met

## Task Take the compound "N=C(N)NCCCCC(=O)N[C@@H](CCC(N)=O)C(=O)N[C@@H](Cc1ccccc1)C(=O)N[C@@H](CCCNC(=N)N)C(=O)c1nccs1" and say whether its Activity is less than 10%.
## Result not met

## Task Take the compound "N=C(N)NCCC[C@H](NC(=O)[C@H](Cc1ccccc1)NC(=O)[C@@H]1CCC(=O)NCCCC(=O)N1)C(=O)c1nc2ccccc2s1" and say whether its Activity is less than 10%.
## Result met

## Task Take the compound "CS(=O)(=O)N[C@@H](CCC(N)=O)C(=O)N[C@@H](Cc1ccccc1)C(=O)N[C@@H](CCCNC(=N)N)C(=O)c1nccs1" and say whether its Activity is less than 10%.
## Result not met

## Task Take the compound "CCOC(=O)N[C@@H](CCCNC(=N)N)C(=O)N[C@@H](CCC(N)=O)C(=O)N[C@@H](Cc1ccccc1)C(=O)N[C@@H](CCCNC(=N)N)C(=O)c1nc2ccccc2s1" and say whether its Activity is less than 10%.
## Result met

## Task Take the compound "N=C(N)NCCC[C@H](NC(=O)OCc1ccccc1)C(=O)N[C@@H](CCC(N)=O)C(=O)N[C@@H](Cc1ccccc1)C(=O)N[C@@H](CCCNC(=N)N)C(=O)c1nc2ccccc2s1" and say whether its Activity is less than 10%.
## Result met
